SUBJECT_OF_TEST: IP3K-KD (human IP3K-KD A isoform, residues 187–461) (Homo sapiens, UniProt P23677)
Construct: human IP3K-KD A isoform (residues 187–461); GST (cleaved yes); made in house; host or cells: Escherichia coli BL21 star (DE3)
Sequence (P23677 187-461): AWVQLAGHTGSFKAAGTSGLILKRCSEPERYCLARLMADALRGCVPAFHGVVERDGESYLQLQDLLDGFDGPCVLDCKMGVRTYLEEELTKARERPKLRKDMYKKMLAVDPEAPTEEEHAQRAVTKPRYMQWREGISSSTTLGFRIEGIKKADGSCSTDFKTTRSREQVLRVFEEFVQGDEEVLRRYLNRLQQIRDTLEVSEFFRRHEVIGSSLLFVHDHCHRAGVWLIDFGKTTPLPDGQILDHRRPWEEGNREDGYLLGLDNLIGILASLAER
PROTOCOL_NOTES: Fluorescence thermal shift analysis (Tycho NT.6, inflection temperature Ti)
Type: binding
RUN_PARAMETERS: 10 μM IP3K-KD, 100 μM chiral or 200 μM racemic ligand, AMP-PNP or ADP, 100 μM MgCl2; mean ± SD, n=3
PROPERTY_NAME: Ti, transition 2 (mean inflection temperature)

O=P(O)(O)OC[C@H]1O[C@H](CO)[C@@H](OP(=O)(O)O)[C@H](OP(=O)(O)O)[C@H]1O [7b–s] | 54.4 ± 0.3 ºC
O=P(O)(O)O[C@@H]1[C@@H](O)[C@H](CO)[C@@H](OP(=O)(O)O)[C@H](OP(=O)(O)O)[C@H]1O (racemic) [5-s] | 57.0 ± 0.1 ºC
O=P(O)(O)O[C@@H]1[C@H](O)[C@@H](O)[C@@H](OP(=O)(O)O)[C@H](OP(=O)(O)O)[C@H]1O [4-s, L-chiro-inositol 2,3,5-trisphosphate] | 57.3 ± 0.1 ºC
CO[C@@H]1O[C@H](CO)[C@@H](O[C@H]2O[C@H](CO)[C@@H](OP(=O)(O)O)[C@H](OP(=O)(O)O)[C@H]2O)[C@H]1OP(=O)(O)O [compound 8, ribophostin] | 54.1 ± 0.1 ºC

API: the following record is the query input.
GET Ti, transition 2 (mean inflection temperature) | system: IP3K-KD (human IP3K-KD A isoform, residues 187–461) (Homo sapiens, UniProt P23677) | item: CO[C@@H]1O[C@H](CO)[C@@H](O[C@H]2[C@H](O)[C@H](O)[C@@H](OP(=O)(O)O)[C@H](OP(=O)(O)O)[C@H]2O)[C@H]1OP(=O)(O)O [compound 9, D-chiro-inositol ribophostin] 54.5 ± 0.1 ºC
